- experimental.system: SARS-CoV-2 NSP3 macrodomain (Mac1) (Severe acute respiratory syndrome coronavirus 2, UniProt P0DTD1)
- measurement.description: biochemical
- Type: binding
- cond: SARS CoV-2 macrodomain HTRF assay
metric: log10(Ki) (log10 of the value in µM)

{"compound": "O=C(O)C(F)(F)F.OC[C@H](Cc1ccc(O)cc1)Nc1ncnc2[nH]ccc12 [AVI-4066]", "endpoint.result": 2.83}
{"compound": "OC[C@@H]1C[C@@H]2CCC[C@@H]2N1c1ncnc2[nH]ccc12 [AVI-3720]", "endpoint.result": 1.41}
{"compound": "OC1(CNc2ncnc3[nH]ccc23)CCCCC1 [AVI-6217]", "endpoint.result": 1.59}
{"compound": "OCC1CC=CCN1c1ncnc2[nH]ccc12 (centres unmarked) [AVI-6002]", "endpoint.result": 1.68}
{"compound": "CC(C)(O)[C@@H]1CCCN1c1ncnc2[nH]ccc12 [AVI-1445]", "endpoint.result": 2.00}
{"compound": "C[C@H]1CC[C@H](CO)N(c2ncnc3[nH]ccc23)C1 [AVI-4063]", "endpoint.result": 1.72}
{"compound": "OCCC(CO)Nc1ncnc2[nH]ccc12 (centres unmarked) [AVI-3734]", "endpoint.result": 1.68}
{"compound": "CC(C)(O)C1C2CCC2CN1c1ncnc2[nH]ccc12 (centres unmarked) [AVI-4128]", "endpoint.result": 1.34}
{"compound": "O[C@H]1CC[C@H]2CCN(c3ncnc4[nH]ccc34)[C@H]21 [AVI-5997]", "endpoint.result": 1.53}
{"compound": "OCC1CC2(CCCC2)CN1c1ncnc2[nH]ccc12 (centres unmarked) [AVI-3708]", "endpoint.result": 1.40}
{"compound": "OC1(CNc2ncnc3[nH]ccc23)CC2CCC1CC2 (centres unmarked) [AVI-4320]", "endpoint.result": 1.89}
{"compound": "CC(O)C1CCCN1c1ncnc2[nH]ccc12 (centres unmarked) [AVI-4062]", "endpoint.result": 1.71}
{"compound": "CC1CCCC(O)(CNc2ncnc3[nH]ccc23)C1 (centres unmarked) [AVI-4307]", "endpoint.result": 1.57}
{"compound": "CC(C)(CO)Nc1ncnc2[nH]ccc12 [AVI-5266]", "endpoint.result": 1.48}
{"compound": "OC1(CNc2ncnc3[nH]ccc23)COC2CC1C2 (centres unmarked) [AVI-4313]", "endpoint.result": 2.08}
{"compound": "CC(Nc1ncnc2[nH]ccc12)C1(O)CCCCC1 (centres unmarked) [AVI-4321]", "endpoint.result": 1.65}
{"compound": "OC1(CNc2ncnc3[nH]ccc23)CCCOC1 (centres unmarked) [AVI-4311]", "endpoint.result": 2.20}
{"compound": "C[C@@H]1CCN(c2ncnc3[nH]ccc23)[C@H](CO)C1 [AVI-4064]", "endpoint.result": 1.97}
{"compound": "CCC(C)(CO)Nc1ncnc2[nH]ccc12 (centres unmarked) [AVI-3697]", "endpoint.result": 1.53}
{"compound": "OCC1C2CCC(C2)N1c1ncnc2[nH]ccc12 (centres unmarked) [AVI-3713]", "endpoint.result": 1.40}
{"compound": "OC1(CNc2ncnc3[nH]ccc23)CCC2(CC1)OCCO2 [AVI-4315]", "endpoint.result": 2.30}
{"compound": "Cc1c[nH]c2ncnc(NCC3(O)CCCC3)c12 [AVI-3760]", "endpoint.result": 1.26}
{"compound": "O=C(O)C(F)(F)F.OCC1(Nc2ncnc3[nH]ccc23)CCCC1 [AVI-3692]", "endpoint.result": 1.66}
{"compound": "OCC1C=CCCN1c1ncnc2[nH]ccc12 (centres unmarked) [AVI-5998]", "endpoint.result": 2.18}
{"compound": "O[C@H]1CC[C@@H]2CCN(c3ncnc4[nH]ccc34)[C@@H]21 [AVI-3664]", "endpoint.result": 1.41}
{"compound": "OC1(CNc2ncnc3[nH]ccc23)CCCSC1 (centres unmarked) [AVI-4322]", "endpoint.result": 1.69}
{"compound": "O=S1(=O)CCCC(O)(CNc2ncnc3[nH]ccc23)C1 (centres unmarked) [AVI-4317]", "endpoint.result": 2.00}
{"compound": "Cc1c[nH]c2ncnc(NCC3(O)CCC3)c12 [AVI-3571]", "endpoint.result": 1.15}
{"compound": "CC(C)(O)C1C2CCCCC2CN1c1ncnc2[nH]ccc12 (centres unmarked) [AVI-4127]", "endpoint.result": 2.08}
{"compound": "OCC(Nc1ncnc2[nH]ccc12)C1CC1 (centres unmarked) [AVI-3651]", "endpoint.result": 1.65}
{"compound": "CC1(C)CCN(c2ncnc3[nH]ccc23)C(CO)C1 (centres unmarked) [AVI-5994]", "endpoint.result": 1.80}
{"compound": "CC(C)(O)[C@H]1CCCN1c1ncnc2[nH]ccc12 [AVI-607]", "endpoint.result": 0.67}
{"compound": "CC1(C)C[C@@H](CO)N(c2ncnc3[nH]ccc23)C1.O=C(O)C(F)(F)F [AVI-3704]", "endpoint.result": 1.43}
{"compound": "CC1CCC(O)(CNc2ncnc3[nH]ccc23)CC1 (centres unmarked) [AVI-4312]", "endpoint.result": 1.30}
{"compound": "OC[C@@H]1C[C@H](O)CN1c1ncnc2[nH]ccc12 [AVI-610]", "endpoint.result": 2.18}
{"compound": "OCC1CCC2(CCOCC2)CN1c1ncnc2[nH]ccc12 (centres unmarked) [AVI-4065]", "endpoint.result": 2.60}
{"compound": "Cc1c[nH]c2ncnc(NCC3(O)CCSCC3)c12 [AVI-4195]", "endpoint.result": 1.68}
{"compound": "O=C(O)C(F)(F)F.OC1([C@H]2CCCN2c2ncnc3[nH]ccc23)Cc2ccccc2C1 [AVI-3731]", "endpoint.result": 0.53}
{"compound": "OC1CCC(O)(CNc2ncnc3[nH]ccc23)CC1 (centres unmarked) [AVI-6220]", "endpoint.result": 2.38}
{"compound": "CCC(CC)(CO)Nc1ncnc2[nH]ccc12 [AVI-3695]", "endpoint.result": 1.57}
{"compound": "CC(C)(O)C1N(c2ncnc3[nH]ccc23)CCC1(C)C (centres unmarked) [AVI-4126]", "endpoint.result": 1.97}

---

// Hill slope lookup, one value per entry
- experimental.system: SARS-CoV-2 NSP3 macrodomain (Mac1) (Severe acute respiratory syndrome coronavirus 2, UniProt P0DTD1)
- measurement.description: biochemical
- Type: binding
- cond: HTRF binding curve, SARS-CoV-2 Mac1
metric: Hill slope

{"compound": "Cc1c[nH]c2ncnc(NCC3(O)CCC3)c12", "endpoint.result": 1.0}
{"compound": "CC(C)(O)[C@@H]1CCCN1c1ncnc2[nH]ccc12", "endpoint.result": 1.1}
{"compound": "Nc1ncnc2c1ncn2[C@@H]1O[C@H](COP(=O)(O)OP(=O)(O)OC[C@H]2O[C@@H](O)[C@H](O)[C@@H]2O)[C@@H](O)[C@H]1O.[Na].[Na] [ADP-ribose, reference compound]", "endpoint.result": 1.1}
{"compound": "Cc1c[nH]c2ncnc(NCC3(O)CCCC3)c12", "endpoint.result": 1.1}
{"compound": "Cc1c[nH]c2ncnc(NCC(C)(C)O)c12", "endpoint.result": 1.0}

---

- experimental.system: SARS-CoV-2 NSP3 macrodomain (Mac1) (Severe acute respiratory syndrome coronavirus 2)
- measurement.description: biochemical
- Type: binding
- cond: SARS CoV-2 macrodomain HTRF assay, dose-response; read-out: IC50
metric: IC50 (µM)

{"compound": "OC1(CNc2ncnc3[nH]ccc23)CCC2(CC1)OCCO2 [AVI-4315]", "endpoint.result": 210}
{"compound": "CC1(C)CCN(c2ncnc3[nH]ccc23)C(CO)C1 (stereo not shown) [AVI-5994]", "endpoint.result": 68}
{"compound": "Cc1c[nH]c2ncnc(NCC3(O)CCSCC3)c12 [AVI-4195]", "endpoint.result": 52}
{"compound": "C[C@@H]1CCN(c2ncnc3[nH]ccc23)[C@H](CO)C1 [AVI-4064]", "endpoint.result": 100}
{"compound": "O[C@H]1CC[C@H]2CCN(c3ncnc4[nH]ccc34)[C@H]21 [AVI-5997]", "endpoint.result": 37}
{"compound": "OC1(CNc2ncnc3[nH]ccc23)CC2CCC1CC2 (stereo not shown) [AVI-4320]", "endpoint.result": 83}
{"compound": "CC(C)(O)C1N(c2ncnc3[nH]ccc23)CCC1(C)C (stereo not shown) [AVI-4126]", "endpoint.result": 100}
{"compound": "OC1CCC(O)(CNc2ncnc3[nH]ccc23)CC1 (stereo not shown) [AVI-6220]", "endpoint.result": 260}
{"compound": "CC(C)(O)C1C2CCCCC2CN1c1ncnc2[nH]ccc12 (stereo not shown) [AVI-4127]", "endpoint.result": 130}
{"compound": "OCC(Nc1ncnc2[nH]ccc12)C1CC1 (stereo not shown) [AVI-3651]", "endpoint.result": 48}
{"compound": "Cc1c[nH]c2ncnc(NCC3(O)CCC3)c12 [AVI-3571]", "endpoint.result": 15}
{"compound": "OCC1C2CCC(C2)N1c1ncnc2[nH]ccc12 (stereo not shown) [AVI-3713]", "endpoint.result": 27}
{"compound": "CCC(CC)(CO)Nc1ncnc2[nH]ccc12 [AVI-3695]", "endpoint.result": 40}
{"compound": "CC1CCCC(O)(CNc2ncnc3[nH]ccc23)C1 (stereo not shown) [AVI-4307]", "endpoint.result": 40}
{"compound": "OC1(CNc2ncnc3[nH]ccc23)CCCOC1 (stereo not shown) [AVI-4311]", "endpoint.result": 170}
{"compound": "C[C@H]1CC[C@H](CO)N(c2ncnc3[nH]ccc23)C1 [AVI-4063]", "endpoint.result": 56}
{"compound": "Cc1c[nH]c2ncnc(NCC3(O)CCC(C)CC3)c12 (stereo not shown) [AVI-4331]", "endpoint.result": 210}
{"compound": "OC1(CNc2ncnc3[nH]ccc23)CCCC(C(F)(F)F)C1 (stereo not shown) [AVI-4309]", "endpoint.result": 150}
{"compound": "O=C(O)C(F)(F)F.OC[C@H](Cc1ccc(O)cc1)Nc1ncnc2[nH]ccc12 [AVI-4066]", "endpoint.result": 720}
{"compound": "OCC1CCC2(CCOCC2)CN1c1ncnc2[nH]ccc12 (stereo not shown) [AVI-4065]", "endpoint.result": 430}
{"compound": "OC1(CNc2ncnc3[nH]ccc23)COC2CC1C2 (stereo not shown) [AVI-4313]", "endpoint.result": 130}
{"compound": "OCC1C=CCCN1c1ncnc2[nH]ccc12 (stereo not shown) [AVI-5998]", "endpoint.result": 160}
